Can you tell me Emax for the items I'm about to list?
- targetOrTestSystem: SIRT1 (Homo sapiens)
- Sequence (Q96EB6 1-747): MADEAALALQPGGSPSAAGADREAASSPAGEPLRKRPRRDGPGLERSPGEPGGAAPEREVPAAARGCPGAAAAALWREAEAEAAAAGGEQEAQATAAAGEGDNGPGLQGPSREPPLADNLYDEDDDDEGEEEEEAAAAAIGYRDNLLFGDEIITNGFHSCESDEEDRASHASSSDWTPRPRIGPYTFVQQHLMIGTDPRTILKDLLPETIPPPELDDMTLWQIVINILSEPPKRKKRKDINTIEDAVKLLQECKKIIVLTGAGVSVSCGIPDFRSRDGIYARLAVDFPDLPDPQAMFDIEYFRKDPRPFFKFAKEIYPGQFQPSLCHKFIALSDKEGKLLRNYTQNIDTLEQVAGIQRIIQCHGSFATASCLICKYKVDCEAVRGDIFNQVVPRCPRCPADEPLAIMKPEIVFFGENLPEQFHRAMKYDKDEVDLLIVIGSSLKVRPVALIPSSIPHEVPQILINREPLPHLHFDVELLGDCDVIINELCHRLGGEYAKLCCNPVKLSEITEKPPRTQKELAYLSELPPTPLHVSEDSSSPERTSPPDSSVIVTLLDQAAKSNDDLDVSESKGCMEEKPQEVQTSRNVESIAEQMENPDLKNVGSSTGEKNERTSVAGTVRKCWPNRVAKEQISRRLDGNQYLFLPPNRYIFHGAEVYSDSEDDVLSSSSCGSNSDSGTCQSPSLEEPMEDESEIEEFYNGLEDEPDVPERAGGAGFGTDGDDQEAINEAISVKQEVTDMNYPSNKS
- protocolSummary: Mass spectrometry based SIRT1 deacetylation (activation) assay
- Format: biochemical
- testSettings: 25 min, 0.5 μM peptide substrate, 120 μM βNAD+, 10 nM SIRT1, 25 min at 25° C., read-out: % Fold Act. (percent maximum fold activation)

Example cases with answers are listed next.
CCN(CCN(C)C)c1cc(C(=O)Nc2ccccc2C(=O)NC2CCC2)nc(-c2ccccc2)n1 [Compound 164]; ≥ 300%
CCc1nnc(-c2ccccc2NC(=O)c2cc(N(CC)CCN(C)C)nc(-c3ccccc3)n2)s1 [Compound 55]; 150 to 300%
CN(C)CCNc1cc(C(=O)Nc2ccccc2C(=O)Nc2cc(Cl)ccc2Cl)nc(-c2ccccc2)n1 [Compound 161]; 150 to 300%

Please supply Emax for each of the following items, keeping them in order.
1. CN(C)CCNc1cc(C(=O)Nc2ccccc2C(=O)Nc2ccncc2)nc(-c2ccccc2)n1 [Compound 156]
2. CN(C)CCNc1cc(C(=O)Nc2ccccc2-c2cccnc2)nc(-c2ccccc2)n1 [Compound 11]

OUT:
["≥ 300%", "150 to 300%"]
